- test_summary: CC50 assay (CellTiter-Glo) in Huh-7 HCV replicon cells
- Format: cell-based, human
- experimental_context: human, 3 days incubation, CellTiter-Glo readout
- Method: The anti-HCV activity of the pyrido[3,2-d]pyrimidine derivatives of this invention was tested in a human hepatoma Huh-7 cell line harboring a HCV replicon. The assay comprised the following steps: Step 1: Compound Preparation and Serial Dilution • 1. for water soluble pyrido[3,2-d]pyrimidine derivatives, a volume of 500 μL of solution in cell media (DMEM, 10% FBS, P/S, L-Glutamine) was prepared with a concentration being twice the concentration of the starting final serial dilution concentration. […]
value_kind: CC50 at 3 days

- CCOc1nc(NCc2ccc(NS(C)(=O)=O)cc2)nc2ccc(-c3ccc(F)cc3)nc12: 5 to 25 µM
- CN1CC[C@H](C(=O)Nc2ccc(-c3ccc4nc(NCc5ccc(S(N)(=O)=O)cc5)nc(OC5CC5)c4n3)cc2)C1: > 25 µM
- NS(=O)(=O)c1ccc(CNc2nc(OC3CCCC3)c3nc(-c4ccc(F)cc4)ccc3n2)cc1: 5 to 25 µM
- CS(=O)(=O)N(CCO)c1cccc(-c2ccc3nc(NCc4ccc(S(N)(=O)=O)cc4)nc(NCC(F)(F)F)c3n2)c1: > 25 µM
- Nc1cc(-c2ccc3nc(NCc4ccc(S(N)(=O)=O)cc4)nc(NCC(F)(F)F)c3n2)ccn1: > 25 µM
- Fc1ccc(-c2ccc3nc(NCCn4cncn4)nc(NCC(F)(F)F)c3n2)cc1: > 25 µM
- CCOc1nc(NCc2ccc(S(N)(=O)=O)cc2)nc2ccc(-c3ccc(NC(N)=O)cc3)nc12: 5 to 25 µM
- CS(=O)(=O)CCNc1nc(NCc2ccc(F)cc2)nc2ccc(-c3ccc(C(N)=O)cc3)nc12: < 5 µM

====

- test_summary: CC50 assay (CellTiter-Glo) in Huh-7 HCV replicon cells
- Type: cell-based, human
- experimental_context: human, 3 days incubation, CellTiter-Glo readout
value_kind: CC50 at 3 days

* CC(Nc1nc(NCC(F)(F)F)c2nc(-c3ccc(F)cc3)ccc2n1)c1ccc(-n2cncn2)cc1 (centres unmarked) [Example 255] | 5 to 25 µM
* NS(=O)(=O)c1ccc(CNc2nc(NCC(F)(F)F)c3nc(-n4ccnc4)ccc3n2)cc1 [Example 286] | 5 to 25 µM
* NS(=O)(=O)c1ccc(CNc2nc(NCC(F)(F)F)c3nc(-c4ccc(F)cc4)ccc3n2)c(F)c1 [Example 246] | 5 to 25 µM
* COc1nc(NCc2ccc(F)cc2)nc2ccc(-c3ccc(F)cc3)nc12 [Example 26] | > 25 µM
* CCOc1nc(NCc2ccc(F)cc2)nc2ccc(-c3ccc(NC(=O)NC4CC4)cc3)nc12 [Example 74] | 5 to 25 µM
* N[C@@H](CO)C(=O)Nc1ccc(-c2ccc3nc(NCc4ccc(S(N)(=O)=O)cc4)nc(NC4CC4)c3n2)cc1 [Example 182] | 5 to 25 µM
* CCOc1nc(NCc2ccc(F)cc2)nc2ccc(-c3ccc(NC(=O)[C@H]4CCNC4)cc3)nc12 [Example 91] | < 5 µM
* CCOc1nc(NCc2ccc(Cl)c(F)c2)nc2ccc(-c3ccc(F)cc3)nc12 [Example 40] | 5 to 25 µM

====

- test_summary: CC50 assay (CellTiter-Glo) in Huh-7 HCV replicon cells
- Type: cell-based, human
- experimental_context: human, 3 days incubation, CellTiter-Glo readout
// reported CC50 at 3 days per item
value_kind: CC50 at 3 days

- CCOc1nc(NCc2ccc(F)cc2)nc2ccc(-c3ccc(C(=O)NC4CC4)cc3)nc12: > 25 µM
- CCOc1nc(NCc2c(F)cc(Cl)cc2F)nc2ccc(-c3ccc(F)cc3)nc12: 5 to 25 µM
- CC(C)N1CCN(S(=O)(=O)c2cc(-c3ccc4nc(NCc5ccc(S(N)(=O)=O)cc5)nc(NCC(F)(F)F)c4n3)ccc2Cl)CC1: < 5 µM
- N[C@@H](CO)C(=O)Nc1ccc(-c2ccc3nc(NCc4ccc(S(N)(=O)=O)cc4)nc(NCC(F)(F)F)c3n2)cc1: < 5 µM
- COCCOc1nc(NCc2ccc(S(N)(=O)=O)cc2)nc2ccc(-c3ccc(F)cc3)nc12: < 5 µM
- CCOc1nc(NCc2nccs2)nc2ccc(-c3ccc(F)cc3)nc12: 5 to 25 µM
- NS(=O)(=O)c1ccc(CNc2nc(NCC(F)(F)F)c3nc(-c4ccc(Cl)c(S(N)(=O)=O)c4)ccc3n2)cc1: < 5 µM
- CCOc1nc(NCc2ccc(F)cc2)nc2ccc(-c3cccc(NS(C)(=O)=O)c3)nc12: < 5 µM

====

// reported CC50 per item
- System: Huh-7 HCV replicon cells
- test_summary: CC50 assay (CellTiter-Glo) in Huh-7 HCV replicon cells
- Type: cell-based, human
- experimental_context: 3 days incubation, CellTiter-Glo readout
value_kind: CC50

- CC(Nc1nc(NCC(F)(F)F)c2nc(-c3ccc(F)cc3)ccc2n1)c1ccc(S(N)(=O)=O)cc1 (centres unmarked) [Example 250]: < 5 µM
- CC(Nc1nc(NCC(F)(F)F)c2nc(-c3ccc(F)cc3)ccc2n1)c1ccc(S(N)(=O)=O)cc1 (centres unmarked) [Example 257]: 5 to 25 µM

====

- test_summary: CC50 assay (CellTiter-Glo) in Huh-7 HCV replicon cells
- Format: cell-based, human
- experimental_context: human, 3 days incubation, CellTiter-Glo readout
value_kind: CC50 at 3 days

• CCOc1nc(NCc2ccc(F)cc2)nc2ccc(-c3ccc(N4CCC(O)C4=O)cc3)nc12 (centres unmarked) [Example 86] = < 5 µM
• CCOc1nc(N[C@H](C)c2ccccc2)nc2ccc(-c3ccc(F)cc3)nc12 [Example 113] = > 25 µM
• N#Cc1ccc(-c2ccc3nc(NCc4ccc(S(N)(=O)=O)cc4)nc(NCC(F)(F)F)c3n2)cc1 [Example 212] = 5 to 25 µM
• CCOc1nc(NCc2ccc(F)cc2)nc2ccc(-c3cnc(NC(=O)C4CC4)nc3)nc12 [Example 80] = 5 to 25 µM
• NS(=O)(=O)c1ccc(CNc2nc(NCC(F)F)c3nc(-c4ccc(F)cc4)ccc3n2)cc1 [Example 151] = < 5 µM
• O=C1C(O)CCN1c1ccc(-c2ccc3nc(NCc4ccc(F)cc4)nc(NCC(F)(F)F)c3n2)cc1 (centres unmarked) [Example 275] = < 5 µM
• CCOc1nc(NCc2ccc(S(N)(=O)=O)cc2)nc2ccc(-c3ccc(S(N)(=O)=O)cc3)nc12 [Example 134] = 5 to 25 µM
• N#Cc1cc(-c2ccc3nc(NCc4ccc(S(N)(=O)=O)cc4)nc(NCC(F)(F)F)c3n2)ccn1 [Example 173] = > 25 µM

====

- test_summary: CC50 assay (CellTiter-Glo) in Huh-7 HCV replicon cells
- Type: cell-based, human
- experimental_context: human, 3 days incubation, CellTiter-Glo readout
// reported CC50 at 3 days per item
value_kind: CC50 at 3 days

• NS(=O)(=O)c1ccc(CNc2nc(NCC(F)(F)F)c3nc(-c4ccc(Cl)cc4)ccc3n2)cc1 = 5 to 25 µM
• NS(=O)(=O)c1ccc(CNc2nc(NCC(F)(F)F)c3nc(-c4ccc(F)c(S(N)(=O)=O)c4)ccc3n2)cc1 = > 25 µM
• CCOc1nc(NCc2ccc(C(N)=O)cc2)nc2ccc(-c3ccc(F)cc3)nc12 = 5 to 25 µM
• Fc1ccc(-c2ccc3nc(NCc4cncs4)nc(NCC(F)(F)F)c3n2)cc1 = 5 to 25 µM
• CCOc1nc(NCc2ccc(F)cc2)nc2ccc(-c3ccc4[nH]ncc4c3)nc12 = 5 to 25 µM
• N#CC1(NC(=O)c2ccc(-c3ccc4nc(NCc5ccc(F)cc5)nc(O[C@H]5CCOC5)c4n3)cc2)CC1 = < 5 µM
• CCOc1nc(NCc2cccnc2)nc2ccc(-c3ccc(F)cc3)nc12 = > 25 µM
• CCOc1nc(NCc2ccc(F)cc2)nc2ccc(-c3ccc(N4CCCC4=O)cc3)nc12 = 5 to 25 µM
• CCOc1nc(NCc2ccc(F)cc2)nc2ccc(-c3ccc(NC(=O)NCCN4CCOCC4)cc3)nc12 = < 5 µM
• CCOc1nc(NCc2ccc(S(N)(=O)=O)cc2)nc2ccc(-c3ccc(NC(=O)N4CCCC4)cc3)nc12 = > 25 µM
• CCOc1nc(NCc2ccc(F)cc2Cl)nc2ccc(-c3ccc(F)cc3)nc12 = > 25 µM
• CCOc1nc(NCc2ccc(F)cc2)nc2ccc(-c3cccc(S(N)(=O)=O)c3)nc12 = 5 to 25 µM
• NS(=O)(=O)c1cccc(CNc2nc(NCC(F)(F)F)c3nc(-c4ccc(F)cc4)ccc3n2)c1 = < 5 µM
• CC(C)(C)OC(=O)N1CCN(S(=O)(=O)c2cc(-c3ccc4nc(NCc5ccc(S(N)(=O)=O)cc5)nc(NCC(F)(F)F)c4n3)ccc2F)CC1 = 5 to 25 µM
• NS(=O)(=O)c1ccc(CNc2nc(NCC(F)(F)F)c3nc(-c4ccc(NC(=O)[C@H]5CCNC5)cc4)ccc3n2)cc1 = 5 to 25 µM
• NS(=O)(=O)c1ccc(CNc2nc(NCC(F)(F)F)c3nc(-c4csc(N5CCCC5)n4)ccc3n2)cc1 = < 5 µM
• CS(=O)(=O)CCNc1nc(NCc2ccc(F)cc2)nc2ccc(-c3cnc(N)s3)nc12 = > 25 µM
• NS(=O)(=O)c1ccc(CNc2nc(NCC(F)(F)F)c3nc(-c4ccc(F)nc4)ccc3n2)cc1 = < 5 µM
• CCOc1nc(NCc2c(F)cc(OC)cc2F)nc2ccc(-c3ccc(F)cc3)nc12 = 5 to 25 µM
• CN(CC(F)(F)F)c1nc(NCc2ccc(S(N)(=O)=O)cc2)nc2ccc(-c3ccc(F)cc3)nc12 = < 5 µM
• CCOc1nc(NCc2cccc(Cl)c2F)nc2ccc(-c3ccc(F)cc3)nc12 = > 25 µM
• Fc1ccc(-c2ccc3nc(NCC(F)(F)F)nc(NCC(F)(F)F)c3n2)cc1 = > 25 µM
• CN(CCS(C)(=O)=O)c1nc(NCc2ccc(F)cc2)nc2ccc(-c3ccc(F)cc3)nc12 = > 25 µM
• CCOc1nc(NCc2ccc(S(N)(=O)=O)cc2)nc2ccc(-c3ccc(C(=O)NC(C)(C)CN4CCCC4)cc3)nc12 = < 5 µM
• CCOc1nc(NCc2ccc(F)cc2)nc2ccc(-c3cccc(NS(=O)(=O)N(C)C)c3)nc12 = < 5 µM
• Nc1ncc(-c2ccc3nc(NCc4ccc(S(N)(=O)=O)cc4)nc(NCC(F)(F)F)c3n2)cn1 = > 25 µM
• COc1cc(-c2ccc3nc(NCc4ccc(S(N)(=O)=O)cc4)nc(NCC(F)(F)F)c3n2)ccn1 = 5 to 25 µM
• CN1CC[C@H](C(=O)Nc2ccc(-c3ccc4nc(NCc5ccc(S(N)(=O)=O)cc5)nc(NCC(F)(F)F)c4n3)cc2)C1 = 5 to 25 µM
• CC(C)Nc1nc(NCC(F)(F)F)nc2ccc(-c3ccc(F)cc3)nc12 = 5 to 25 µM
• C[C@H](O)C(=O)Nc1ccc(-c2ccc3nc(NCc4ccc(S(N)(=O)=O)cc4)nc(NCC(F)(F)F)c3n2)cc1Cl = 5 to 25 µM
